Hey, just so you know, these numbers are from the RNAGym collection of RNA variant scans (doi:10.1093/nar/gkz1192).

B1: CPEB3 Ribozyme (parent)
chain: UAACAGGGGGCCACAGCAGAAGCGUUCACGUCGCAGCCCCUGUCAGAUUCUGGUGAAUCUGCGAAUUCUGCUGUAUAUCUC

variants of: B1; assay: self-cleavage, relative activity (ratio to wild type); higher = more cleavage; in vitro, sequencing
readout.name: self-cleavage
Enter a number only.

As a guide, the following entries are already answered.
> print(dat)
    mutation  measured.value
1  A28U C59A            0.21
2   A5G C38A            0.44
3   A3G A28U            0.89
4   G7A U31C            0.25
5  C50U U76A            0.94

[ask] Given the entry A13G U67A , report its measured self-cleavage.
[reply] 0.43

[ask] Given the entry C27A A65G , report its measured self-cleavage.
[reply] 0.25

[ask] Given the entry U48G U72A , report its measured self-cleavage.
[reply] 0.44

[ask] Given the entry A15G C32A , report its measured self-cleavage.
[reply] 0.24

[ask] Given the entry C32G U80C , report its measured self-cleavage.
[reply] 0.08

[ask] Given the entry "C27G" , report its measured self-cleavage.
[reply] 0.28

[ask] Given the entry A3U C4A , report its measured self-cleavage.
[reply] 1.22

[ask] Given the entry G19C A57G , report its measured self-cleavage.
[reply] 0.23

[ask] Given the entry U54A A64G , report its measured self-cleavage.
[reply] 0.92

[ask] Given the entry U69C C79U , report its measured self-cleavage.
[reply] 0.74

[ask] Given the entry C44A U60C , report its measured self-cleavage.
[reply] 0.17

[ask] Given the entry "A21U" , report its measured self-cleavage.
[reply] 0.37

[ask] Given the entry U25G U76C , report its measured self-cleavage.
[reply] 0.52

[ask] Given the entry U31C C38A , report its measured self-cleavage.
[reply] 0.33

[ask] Given the entry A57G A64G , report its measured self-cleavage.
[reply] 0.81

[ask] Given the entry "C68G" , report its measured self-cleavage.
[reply] 0.47

[ask] Given the entry C32U A45G , report its measured self-cleavage.
[reply] 0.15

[ask] Given the entry U58C U72C , report its measured self-cleavage.
[reply] 0.59

[ask] Given the entry C32G U80A , report its measured self-cleavage.
[reply] 0.1

[ask] Given the entry U48C U78A , report its measured self-cleavage.
[reply] 0.86

[ask] Given the entry U72C U78C , report its measured self-cleavage.
[reply] 1.15
